# experiment.notes: protein stability index of a GFP-peptide fusion (yeast GPS) (PSI 1-4); higher = more stable; sorted into four equal gates, so the index is relative within each strain
# measurement.parameters: ubr1∆
measure: protein stability index

Consider the reported protein stability index for these sequences:
[
  {
    "residue.codes": "NEAEQVYLSLLDKDSSQ [RPN6]",
    "protein stability index": 3.45
  },
  {
    "residue.codes": "LKKGEQKTQELNAKYQS [ISW2]",
    "protein stability index": 3.29
  },
  {
    "residue.codes": "LVFILAVVGNNMLLDPA [RRP42]",
    "protein stability index": 1.81
  },
  {
    "residue.codes": "VVMAMYNPKMIDDRDYV [RET1]",
    "protein stability index": 3.45
  },
  {
    "residue.codes": "RSTDRDRVKVIECFKPG [CSL4]",
    "protein stability index": 2.99
  }
]

Just so you know, measured protein stability index for VTMGAKDKLREFIPHST [RPN6] came out at 3.04

Kindly note the recorded protein stability index for KDTNDHVDKRTKIDQEA [ISW2] , which is 2.57

// field: protein stability index; key: SSIDKKSSILTVLQKNS [YML103C/NUP188] ; value = 2.46

====

# experiment.notes: protein stability index of a GFP-peptide fusion (yeast GPS) (PSI 1-4); higher = more stable; sorted into four equal gates, so the index is relative within each strain
# measurement.parameters: san1∆
Quick list: protein stability index per entry.
Number, no unit, nothing else.

Examples with answers:
[
  {
    "residue.codes": "VISTIENVLFYIGRVNK [COB]",
    "protein stability index": 2.43
  },
  {
    "residue.codes": "DQKIWPYLEKYPEYDQI [SSN3]",
    "protein stability index": 3.11
  },
  {
    "residue.codes": "GMNLLSNLSQNVVPYHR [SWI1]",
    "protein stability index": 2.46
  },
  {
    "residue.codes": "VRILRLITTNSVEEVIL [SNF2]",
    "protein stability index": 2.31
  },
  {
    "residue.codes": "LYSVKFAPAHLGLKLAC [YGL100W/SEH1]",
    "protein stability index": 2.72
  }
]

According to the records, this sequence HGMTLRESFEDNVVRFL [RPO21] displays protein stability index of 3.29

Sample VKLMKNITDYETHPDNS [BRR2] ; protein stability index observed: 2.54

Consider LTNLLSQLNIQLSQDEH [SRP72] . Its measured protein stability index is 3.21

GET /value?item= KKQKLIEEQDKKVQALQ [ITC1] &field=protein stability index returns 2.61

Measured protein stability index, SILVIVQKILPLSNEVF [SWI1] : 1.3

In plain terms, EESWEKVVEFAITHMID [SCL1] has a documented protein stability index of 3.06

Form: sequence = SDKTIVPTSIQTKRWPT [SIN4] ; protein stability index = 2.35

Noted for QENSSKIITLDLSNYAE [SMC1] : its protein stability index reads 3.1

Value of measured protein stability index for the entry GAHLLEFQPSGNVTELY [PRE5] : 2.92

====

# experiment.notes: protein stability index of a GFP-peptide fusion (yeast GPS) (PSI 1-4); higher = more stable; sorted into four equal gates, so the index is relative within each strain
# measurement.parameters: doa10∆
# protein stability index values compiled below
Reply with the value as a number alone.

[
  {
    "residue.codes": "VILAKNENETRDKVCKQ [PGD1]",
    "protein stability index": 3.45
  },
  {
    "residue.codes": "EWKSEFVVPTFGQDVSP [SNM1]",
    "protein stability index": 2.25
  },
  {
    "residue.codes": "SIYDKWTDPNLKSSLAD [RPN1]",
    "protein stability index": 2.99
  },
  {
    "residue.codes": "HILFQNNPDMMIQPPQQ [ROX3]",
    "protein stability index": 2.94
  },
  {
    "residue.codes": "YGFKQEIFDVTSNGLKK [FAS1]",
    "protein stability index": 2.98
  },
  {
    "residue.codes": "STNEDQNNSKHTEDTVN [SRB5]",
    "protein stability index": 2.39
  }
]

Sure, the documented protein stability index for NFEKILLTCYELEKKYH [SRB8] is 1.98

Memo: VIDGKLPFMQNAGPNSN [YDL088C/ASM4] , reported protein stability index: 2.93

The reported protein stability index of the sequence LTSGLLYSYLIKENFFE [YJL039C/NUP192] was 1.9

The sequence SDVLLFQLPTTCVSMAP [RGR1] showed protein stability index equal to 2.25

====

protein stability index for assorted sequences
# experiment.notes: protein stability index of a GFP-peptide fusion (yeast GPS) (PSI 1-4); higher = more stable; sorted into four equal gates, so the index is relative within each strain
# measurement.parameters: doa10∆
When you answer, write just the number.

Reference set (5 entries):
[
  {
    "residue.codes": "SATSKPAFSFGAKPEEK [YJL041W/NSP1]",
    "measure": "protein stability index",
    "val": 3.1
  },
  {
    "residue.codes": "YIEDGRNPDIYTREFVE [NUT2]",
    "measure": "protein stability index",
    "val": 3.39
  },
  {
    "residue.codes": "GWYHSHPGFGCWLSSVD [RPN11]",
    "measure": "protein stability index",
    "val": 2.72
  },
  {
    "residue.codes": "IHVLEQDGGIMGSLING [SKI6]",
    "measure": "protein stability index",
    "val": 3.45
  },
  {
    "residue.codes": "KALVLFVPVPALSAYHK [RPS7B]",
    "measure": "protein stability index",
    "val": 2.13
  }
]

# protein stability index (sequence: FDISMADLSSSEEEEDE [SSN2] ) is 3.14

Lab note: measured protein stability index of DNVSFIEEAKSIRRQDY [REC8] was 2.85

What the record says about EVYGINEESTNERLEIN [SIR4] : protein stability index is 3.29

Query KWDDLNEQLTLLSKKHG [RPN5] yields protein stability index of 2.67

Consider ESVPTPANAEPQAVTIT [ITC1] . Its measured protein stability index is 2.88

Looking up HIGHSALKGPVRDKLDE [DPB4] , I found its protein stability index recorded as 3.29

Record LEVGRRFSPDEDFEHNN [MCD1] . Reported protein stability index: 3.26

Data point: SMTATADVLAMAKVEVN [RIP1] ; protein stability index = 1.99

Value of protein stability index reported for the sequence NLRHERNSLETKLTTCK [YIL149C/MLP2] is 2.83

Measured protein stability index of DIVPYFLKHNGEEDAVD [RPN1] : 3.26

====

# experiment.notes: protein stability index of a GFP-peptide fusion (yeast GPS) (PSI 1-4); higher = more stable; sorted into four equal gates, so the index is relative within each strain
# measurement.parameters: san1∆
measure: protein stability index
Answer with the value's number alone.

These recorded examples may help you get a feel for the data.
[
  {
    "residue.codes": "FKVQIIELLSYLVEAPW [YML103C/NUP188]",
    "protein stability index": 1.69
  },
  {
    "residue.codes": "MKPKAEKESDDGLLEYL [SMC4]",
    "protein stability index": 3.31
  },
  {
    "residue.codes": "HDFIKGLIMLNLQPASV [NUT1]",
    "protein stability index": 1.22
  },
  {
    "residue.codes": "MDVDIGCYFEEKRYDDK [CSN12]",
    "protein stability index": 3.01
  }
]

// recorded protein stability index for LLAEYDNIYRNLQKIDK [MED4] : 2.61

response.value for EFLKWTPNVNVLVLHGD [ISW2] (field: protein stability index) = 1.53

====

Entries and their measured protein stability index follow.
# experiment.notes: protein stability index of a GFP-peptide fusion (yeast GPS) (PSI 1-4); higher = more stable; sorted into four equal gates, so the index is relative within each strain
# measurement.parameters: san1∆

[
  {
    "residue.codes": "RVMKSLSINEKDFVTMA [YCG1]",
    "protein stability index": 2.1
  },
  {
    "residue.codes": "KKIGCYMFANLEFSIYH [CSN12]",
    "protein stability index": 2.98
  },
  {
    "residue.codes": "IKGSKLSLGEAFKKIDA [COR1]",
    "protein stability index": 2.29
  },
  {
    "residue.codes": "FVKVTKATLELLKLIEP [RPL7A]",
    "protein stability index": 2.62
  },
  {
    "residue.codes": "VDINRLKKGEVSLGTSI [PRE3]",
    "protein stability index": 2.11
  }
]

The reported value for GTFGGDGMYSESKLSLE [FAS2] in terms of protein stability index is 3.35

get_value(item= NQIPVTEHSKVTRFDEK [SRB6] , readout=protein stability index) returns 2.86

Looking up SNLQRAQNVPMNIIQQQ [GAL11] , I found its protein stability index recorded as 2.34

Measured protein stability index, TTTTANINEVKKASDLV [NUT1] : 2.84
